molecular target: bradykinin 1 receptor (B1R) of the rat (Rattus norvegicus); construct: expressed in transfected cells; assay: FLIPR Ca2+ assay, B1R antagonism, rat; type: cell-based; conditions: CHO-K1, 10 μM test substance; CHO K1 cells with rat B1R gene (rB1R cells); Des-Arg9-bradykinin at EC80; % inhibition compared with the maximum achievable inhibition; read-out: B1R antagonism, rat [10 μM] % inhibition
reported metric: inhibition at 10 µM (%)
Write down the numeric answer in % and omit the unit.

* COc1cc(C)c(S(=O)(=O)N2c3ccccc3OCC2COCC(=O)N2CCC(OCCN3CCCC3)(c3ccncc3)CC2)c(C)c1 (stereo not shown) | 103
* O=C(COCC1CCc2ccccc2N1S(=O)(=O)c1ccc(Cl)c(Cl)c1)N1CCC(OCCCN2CCCC2)(c2cccnc2)CC1 (stereo not shown) | 103
* COc1cc(C)c(S(=O)(=O)N2c3ccccc3CCC2COCC(=O)N2CCC(OCCN3CCCC3)(c3cccc(F)c3)CC2)c(C)c1 (stereo not shown) | 98
* COc1cc(C)c(S(=O)(=O)N2CCCCC2COCC(=O)N2CCC(OCCN3CCCC3)(c3ccc(C(F)(F)F)cc3)CC2)c(C)c1 (stereo not shown) | 96
* COc1cc(C)c(S(=O)(=O)N(C)CCOCC(=O)N2CCC(OCCN3CCCC3)(c3cccc(F)c3)CC2)c(C)c1C | 99

Query :: Record request: inhibition at 10 µM value, item O=C(COCC1CCc2ccccc2N1S(=O)(=O)c1ccc(Cl)c(Cl)c1)N1CCC(OCCN2CCCCC2)(c2cccnc2)CC1 (stereo not shown)
Result :: 87

Query :: Could you share which inhibition at 10 µM value was measured for O=C(COCC1CCCCN1S(=O)(=O)c1ccccc1C(F)(F)F)N1CCC(OCCN2CCCC2)(c2cccnc2)CC1 (stereo not shown) ?
Result :: 101

* * *

Biological target: bradykinin 1 receptor (B1R) of the rat (Rattus norvegicus, UniProt P97583)
Construct: expressed in transfected cells
Sequence (P97583 1-337): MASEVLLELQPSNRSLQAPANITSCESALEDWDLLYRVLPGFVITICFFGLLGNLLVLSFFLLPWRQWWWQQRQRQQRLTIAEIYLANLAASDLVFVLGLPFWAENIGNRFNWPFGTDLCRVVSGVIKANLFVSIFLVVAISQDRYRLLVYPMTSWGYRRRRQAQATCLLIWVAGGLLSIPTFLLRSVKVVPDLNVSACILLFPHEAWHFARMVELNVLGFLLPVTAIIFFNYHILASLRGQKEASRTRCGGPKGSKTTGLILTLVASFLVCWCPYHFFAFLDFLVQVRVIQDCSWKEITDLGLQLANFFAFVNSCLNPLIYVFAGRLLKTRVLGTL
Test: FLIPR Ca2+ assay, B1R antagonism, rat
Type: cell-based
Details: CHO-K1, 10 μM test substance; CHO K1 cells with rat B1R gene (rB1R cells); Des-Arg9-bradykinin at EC80; % inhibition compared with the maximum achievable inhibition; read-out: B1R antagonism, rat [10 μM] % inhibition
reported metric: inhibition at 10 µM (%)
Provide only the numeric value, understood in %.

Look over these answered cases.
- CS(=O)(=O)N(CCOCC(=O)N1CCC(OCCN2CCCC2)(c2cccc(F)c2)CC1)C(c1ccccc1)c1ccccc1: 99
- O=C(COCC1CCc2ccccc2N1S(=O)(=O)c1ccc2ccccc2c1)N1CCC(OCCN2CCCC2)(c2cccnc2)CC1 (stereo not shown): 92
- O=C(CCCC1CCCCN1S(=O)(=O)c1cccc2ccccc12)N1CCC(OCCN2CCCC2)(c2cccc(F)c2)CC1 (stereo not shown): 101
- O=C(COCC1CCc2ccccc2N1S(=O)(=O)c1ccc2ccccc2c1)N1CCC(OCCN2CCCC2)(c2cccc(F)c2)CC1 (stereo not shown): 44
- CN1CCN(CCCOC2(c3cccnc3)CCN(C(=O)CC(NS(=O)(=O)c3ccc4ccccc4c3)c3ccccc3)CC2)CC1 (stereo not shown): 98
- Cc1cc(S(=O)(=O)N2CCCCC2CCC(=O)N2CCC(OCCN3CCCC3)(c3ccc(F)cc3)CC2)c(C)cc1Cl (stereo not shown): 92

Now for the molecule whose inhibition at 10 µM we want.
Query :: Reported inhibition at 10 µM, molecule Cc1cccc(Cl)c1S(=O)(=O)N1CCCCC1COCC(=O)N1CCC(OCCN2CCCC2)(c2ccc(C(F)(F)F)cc2)CC1 (stereo not shown) : ____
Result :: 97
